Sourced from ChEMBL document CHEMBL1201862

- System: Voltage-gated N-type calcium channel alpha-1B subunit/Amyloid beta A4 precursor protein-binding family A member 1 (Homo sapiens, UniProt Q00975+Q02410)
- Sequence (Q00975 whole entry): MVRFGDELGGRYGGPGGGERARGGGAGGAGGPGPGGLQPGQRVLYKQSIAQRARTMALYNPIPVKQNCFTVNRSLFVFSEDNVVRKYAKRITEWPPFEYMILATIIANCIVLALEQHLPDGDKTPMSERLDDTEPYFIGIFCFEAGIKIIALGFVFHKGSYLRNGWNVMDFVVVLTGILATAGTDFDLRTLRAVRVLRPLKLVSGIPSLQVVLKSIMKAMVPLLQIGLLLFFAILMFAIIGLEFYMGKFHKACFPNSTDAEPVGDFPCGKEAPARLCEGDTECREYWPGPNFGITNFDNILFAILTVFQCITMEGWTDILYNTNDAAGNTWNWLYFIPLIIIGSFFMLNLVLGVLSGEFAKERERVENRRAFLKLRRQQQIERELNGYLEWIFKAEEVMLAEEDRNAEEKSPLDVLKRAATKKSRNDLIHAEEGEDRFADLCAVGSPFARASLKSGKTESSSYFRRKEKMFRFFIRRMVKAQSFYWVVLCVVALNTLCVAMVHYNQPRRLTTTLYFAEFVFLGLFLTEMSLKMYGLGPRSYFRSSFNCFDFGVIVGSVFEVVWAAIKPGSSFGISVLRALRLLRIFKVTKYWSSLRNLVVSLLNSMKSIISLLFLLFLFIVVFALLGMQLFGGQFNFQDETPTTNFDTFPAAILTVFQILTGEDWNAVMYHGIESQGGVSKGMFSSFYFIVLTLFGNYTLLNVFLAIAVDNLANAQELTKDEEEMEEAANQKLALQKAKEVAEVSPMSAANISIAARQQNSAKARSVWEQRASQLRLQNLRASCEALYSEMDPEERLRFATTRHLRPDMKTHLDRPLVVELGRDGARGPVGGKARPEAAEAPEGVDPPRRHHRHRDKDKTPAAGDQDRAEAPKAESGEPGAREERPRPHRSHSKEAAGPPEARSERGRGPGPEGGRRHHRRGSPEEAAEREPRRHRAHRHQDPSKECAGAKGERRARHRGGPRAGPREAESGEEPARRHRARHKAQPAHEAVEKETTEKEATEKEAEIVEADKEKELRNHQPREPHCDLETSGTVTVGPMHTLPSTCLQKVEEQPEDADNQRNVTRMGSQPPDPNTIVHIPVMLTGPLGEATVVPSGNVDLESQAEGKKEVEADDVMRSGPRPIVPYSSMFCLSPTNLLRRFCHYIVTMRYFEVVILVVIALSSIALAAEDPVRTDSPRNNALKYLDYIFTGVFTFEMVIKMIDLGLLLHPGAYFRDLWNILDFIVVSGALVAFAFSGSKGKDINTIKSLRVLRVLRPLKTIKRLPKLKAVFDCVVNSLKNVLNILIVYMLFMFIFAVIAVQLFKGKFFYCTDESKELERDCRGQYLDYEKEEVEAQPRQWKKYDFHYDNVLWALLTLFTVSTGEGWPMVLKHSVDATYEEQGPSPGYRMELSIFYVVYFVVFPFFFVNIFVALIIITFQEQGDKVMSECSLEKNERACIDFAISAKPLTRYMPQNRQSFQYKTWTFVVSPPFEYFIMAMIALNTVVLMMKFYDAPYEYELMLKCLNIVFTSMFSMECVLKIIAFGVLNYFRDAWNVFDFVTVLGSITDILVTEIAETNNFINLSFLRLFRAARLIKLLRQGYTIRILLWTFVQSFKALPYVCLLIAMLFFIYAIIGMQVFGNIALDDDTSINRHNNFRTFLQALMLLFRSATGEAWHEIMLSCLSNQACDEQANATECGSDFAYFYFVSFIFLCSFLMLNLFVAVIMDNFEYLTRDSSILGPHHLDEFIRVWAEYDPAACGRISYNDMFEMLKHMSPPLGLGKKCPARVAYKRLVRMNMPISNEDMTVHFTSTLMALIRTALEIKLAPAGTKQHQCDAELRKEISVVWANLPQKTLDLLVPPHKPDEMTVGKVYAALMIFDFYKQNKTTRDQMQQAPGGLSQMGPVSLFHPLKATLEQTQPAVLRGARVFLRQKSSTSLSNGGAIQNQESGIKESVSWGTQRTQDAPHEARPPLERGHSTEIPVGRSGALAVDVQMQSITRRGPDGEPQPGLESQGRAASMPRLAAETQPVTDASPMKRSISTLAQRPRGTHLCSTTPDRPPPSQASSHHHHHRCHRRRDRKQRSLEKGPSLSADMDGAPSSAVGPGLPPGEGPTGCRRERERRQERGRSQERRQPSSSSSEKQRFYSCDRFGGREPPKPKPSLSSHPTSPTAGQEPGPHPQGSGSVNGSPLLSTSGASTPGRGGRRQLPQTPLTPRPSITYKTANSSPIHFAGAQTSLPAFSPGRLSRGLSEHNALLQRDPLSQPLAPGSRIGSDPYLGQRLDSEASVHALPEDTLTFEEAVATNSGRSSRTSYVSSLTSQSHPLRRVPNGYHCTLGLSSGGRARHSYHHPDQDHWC
- Sequence (Q02410 whole entry): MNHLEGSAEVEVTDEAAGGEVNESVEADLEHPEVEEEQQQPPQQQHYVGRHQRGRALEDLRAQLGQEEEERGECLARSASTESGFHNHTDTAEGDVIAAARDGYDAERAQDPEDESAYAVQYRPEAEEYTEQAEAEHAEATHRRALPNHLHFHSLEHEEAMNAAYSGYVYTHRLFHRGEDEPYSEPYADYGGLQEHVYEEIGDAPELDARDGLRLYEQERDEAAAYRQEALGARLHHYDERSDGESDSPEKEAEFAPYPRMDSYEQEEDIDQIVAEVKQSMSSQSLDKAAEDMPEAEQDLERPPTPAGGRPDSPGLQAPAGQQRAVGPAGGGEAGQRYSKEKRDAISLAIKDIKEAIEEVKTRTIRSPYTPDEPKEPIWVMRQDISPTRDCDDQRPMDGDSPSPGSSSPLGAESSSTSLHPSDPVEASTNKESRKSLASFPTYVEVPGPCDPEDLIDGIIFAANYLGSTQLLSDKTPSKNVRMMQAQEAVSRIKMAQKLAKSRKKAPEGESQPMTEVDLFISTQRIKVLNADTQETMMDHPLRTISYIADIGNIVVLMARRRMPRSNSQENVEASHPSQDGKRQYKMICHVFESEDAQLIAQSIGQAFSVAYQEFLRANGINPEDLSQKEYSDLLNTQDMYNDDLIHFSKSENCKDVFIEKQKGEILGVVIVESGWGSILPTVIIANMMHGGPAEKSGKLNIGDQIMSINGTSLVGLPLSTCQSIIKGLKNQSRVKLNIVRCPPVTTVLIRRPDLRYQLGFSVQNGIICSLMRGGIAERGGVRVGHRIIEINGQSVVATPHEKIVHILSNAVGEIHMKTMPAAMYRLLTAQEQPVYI
- Type: protein assay
The source made the active and inactive calls.
Property: IC50

Look over these answered cases.
[[record]]
compound = "Cc1cc(C)nc(NC(=S)Nc2ccc(Br)cc2Cl)c1"
assay_value = "5.57 µM (active)"

[[record]]
compound = "CC(C)c1ccc(/C=C2\\SC(=O)N(CC(=O)NC3CCS(=O)(=O)C3)C2=O)cc1 (centres undefined)"
assay_value = "12.4 µM (active)"

[[record]]
compound = "O=C(O)c1cc(-c2ccco2)nn1-c1ccc(Cl)cc1"
assay_value = "5.13 µM (active)"


// next entry
Given item CCCCn1c(=O)[nH]c2nc3cc(N)ccc3nc2c1=O , the value recorded as its IC50 is 19.1 µM (active)

----------
Entries and their EC50 values follow.
- Test system: H4
- Assay Explanation: Luminescence Cell-Based Dose Response HTS to Identify Activators of 5'UTR Stem-Loop Driven Prion Protein mRNA Translation in H4 Neuroglioblastoma Cells. [Related pubchem assays: 1829 (Project Summary), 1814 (Primary HTS)]
- Assay type: functional
- Experimental Setup: Homo sapiens
Activity calls are given as the source filed them.

Look over these answered cases.
[[record]]
compound = "CN(C)c1ccc(-c2sc(Nc3ccccc3)n[n+]2-c2ccc(F)cc2)cc1"
property = "EC50"
assay_value = "> 120 µM (not active)"

[[record]]
compound = "Cc1n[nH]c(C)c1S(=O)(=O)N1CCCC(C(=O)Nc2ccc(Br)cc2)C1 (stereo unspecified)"
property = "EC50"
assay_value = "> 120 µM (not active)"

[[record]]
compound = "CCOC(=O)c1cnn(-c2ccc(C(F)(F)F)cn2)c1N"
property = "EC50"
assay_value = "> 120 µM (not active)"


Given item C=CCNc1nnc(Sc2ncccc2[N+](=O)[O-])s1 , the value recorded as its EC50 is 17.8 µM (active)

Given item CCN1CCN(c2cc(C)c3cc(NC(=O)c4cccc(OC)c4)ccc3n2)CC1 , the value recorded as its EC50 is 17.9 µM (active)

Given item Cc1cc(C)n(C(=O)c2cc3sccc3[nH]2)n1 , the value recorded as its EC50 is 83.6 µM (inconclusive)

----------
- System: UniProt:G5EF15
- Sequence (G5EF15 whole entry, the tested form may be a part): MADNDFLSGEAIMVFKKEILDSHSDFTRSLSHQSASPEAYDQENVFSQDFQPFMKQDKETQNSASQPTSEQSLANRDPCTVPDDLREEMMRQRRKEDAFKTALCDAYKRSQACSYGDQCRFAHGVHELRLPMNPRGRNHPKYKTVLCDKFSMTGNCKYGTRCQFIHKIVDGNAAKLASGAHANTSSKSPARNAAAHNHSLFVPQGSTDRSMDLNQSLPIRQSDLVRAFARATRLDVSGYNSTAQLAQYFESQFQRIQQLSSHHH
- Assay Explanation: disruptors of C. elegans POS-1 RNA interaction – biochemical, fluorescence polarization, dose response (AID 1964);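 further: purified POS-1 fused to maltose binding protein made in E. coli; potency of compounds blocking POS-1 binding to fluorescent RNA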
Activity calls are given as the source filed them.
Property: EC50

Look over these answered cases.
[[record]]
molecule = "CN(C)c1ccc(O)c2c1CC1CC3C(N(C)C)C(=O)C(C(N)=O)=C(O)[C@@]3(O)C(=O)C1=C2O (stereo not given in full)"
assay_value = "> 300 µM (not active)"

[[record]]
molecule = "COc1cc2c(cc1OC)C(c1ccc(-c3ccc(Cl)c(Cl)c3)o1)=NCC2"
assay_value = "> 300 µM (inconclusive)"

[[record]]
molecule = "COc1c(O)cc2oc(-c3ccc(O)c(O)c3)cc(=O)c2c1O"
assay_value = "93.1 µM (active)"


Recorded EC50 for CCOc1ccc(S(=O)(=O)Nc2cc(SCC(=O)O)c(O)c3ccccc23)cc1 on UniProt:G5EF15 was 78.8 µM (active)

Recorded EC50 for Cc1cc([N+](=O)[O-])cc2c1NCC1CC=CC21 (stereo not given) on UniProt:G5EF15 was > 300 µM (not active)

Recorded EC50 for O=c1oc2ccc3ccccc3c2cc1-c1nc2ccccc2o1 on UniProt:G5EF15 was > 300 µM (not active)

Recorded EC50 for Cc1n[nH]c(C)c1S(=O)(=O)N1CCCC(C(=O)Nc2ccc(Br)cc2)C1 (stereo not given) on UniProt:G5EF15 was > 300 µM (not active)

Recorded EC50 for CCOC(=O)C1=C2NC(=O)c3ccccc3N2C(=O)C1 on UniProt:G5EF15 was 89 µM (active)

Recorded EC50 for Cc1ccc(N2C(=O)NC(=O)/C(=C/c3cnn(-c4ccc(C)cc4)c3)C2=O)cc1 on UniProt:G5EF15 was > 300 µM (not active)

Recorded EC50 for COCCn1c(N)c(NCc2ccccc2)c(=O)[nH]c1=O on UniProt:G5EF15 was 5.47 µM (inconclusive)
